Measured values drawn from patent US11051515B2 for this set.

Test system: AMARE
Test: Pre-emergence action against AMARE
Format: in vivo, Amaranthus retroflexus
Settings: pre-emergence, dosage 320 g/ha, scored visually after 3 weeks vs untreated controls
Source text: Seeds of monocotyledonous and dicotyledonous weed plants and crop plants are laid out in sandy loam soil in wood-fiber pots and covered with soil. […] The damage to the test plants is scored visually after a test period of 3 weeks by comparison with untreated controls (herbicidal activity in percent (%): 100% activity=the plants have died, 0% activity=like control plants).
Property: Pre-emergence action against AMARE (herbicidal activity); scope: individual compounds
test_readout: Pre-emergence action against AMARE (herbicidal activity) (%)

{"compound": "CCCn1nnnc1NC(=O)c1ccc(SC)c(C(=O)C2CC2)c1Cl", "study_system": "AMARE", "observed_result": 100}
{"compound": "CCn1nnnc1NC(=O)c1ccc(C(F)(F)F)c(C(C)=O)c1C", "study_system": "AMARE", "observed_result": 100}
{"compound": "CCn1nnnc1NC(=O)c1ccc(C(F)(F)F)c(C(=O)c2cc(F)cc(F)c2)c1Cl", "study_system": "AMARE", "observed_result": 100}
{"compound": "CCCC(=O)c1c(C(F)(F)F)ccc(C(=O)Nc2nnnn2CC)c1C", "study_system": "AMARE", "observed_result": 100}
{"compound": "CCCn1nnnc1NC(=O)c1ccc(C)c(C(=O)CC)c1Cl", "study_system": "AMARE", "observed_result": 90}
{"compound": "CCC(=O)c1c(C)ccc(C(=O)Nc2nnnn2CC)c1Cl", "study_system": "AMARE", "observed_result": 100}
{"compound": "Cn1nnnc1NC(=O)c1ccc(C(F)(F)F)c(C(=O)C2(C)CC2)c1Cl", "study_system": "AMARE", "observed_result": 100}
{"compound": "CSc1c(C(=O)Nc2nnnn2C)ccc(C(F)(F)F)c1C(=O)C1CCCCC1", "study_system": "AMARE", "observed_result": 100}
{"compound": "CCn1nnnc1NC(=O)c1ccc(C(F)(F)F)c(C(=O)C(C)C)c1Cl", "study_system": "AMARE", "observed_result": 100}
{"compound": "CCn1nnnc1NC(=O)c1ccc(C(F)F)c(C(=O)C2CC2)c1SC", "study_system": "AMARE", "observed_result": 100}
{"compound": "CCn1nnnc1NC(=O)c1ccc(C(F)(F)F)c(C(=O)C2CCC2)c1Cl", "study_system": "AMARE", "observed_result": 100}
{"compound": "CCn1nnnc1NC(=O)c1ccc(C(F)(F)F)c(C(C)=O)c1OC", "study_system": "AMARE", "observed_result": 100}
{"compound": "CCn1nnnc1NC(=O)c1ccc(Cl)c(C(=O)C2CC2)c1Cl", "study_system": "AMARE", "observed_result": 100}
{"compound": "CCn1nnnc1NC(=O)c1ccc(C(F)F)c(C(C)=O)c1Cl", "study_system": "AMARE", "observed_result": 100}
{"compound": "CCn1nnnc1NC(=O)c1ccc(Cl)c(C(=O)C2CCCC2)c1Cl", "study_system": "AMARE", "observed_result": 90}
{"compound": "CCCn1nnnc1NC(=O)c1ccc(C)c(C(C)=O)c1Cl", "study_system": "AMARE", "observed_result": 90}
{"compound": "CCn1nnnc1NC(=O)c1ccc(C(F)(F)F)c(C(=O)C2CCC2)c1SC", "study_system": "AMARE", "observed_result": 100}
{"compound": "CCCn1nnnc1NC(=O)c1ccc(C(F)(F)F)c(C(C)=O)c1Br", "study_system": "AMARE", "observed_result": 100}
{"compound": "CCn1nnnc1NC(=O)c1ccc(C(F)(F)F)c(C(=O)C2CC2C)c1Cl (stereo not drawn)", "study_system": "AMARE", "observed_result": 100}
{"compound": "CCn1nnnc1NC(=O)c1ccc(C(F)(F)F)c(C(C)=O)c1SC", "study_system": "AMARE", "observed_result": 100}
{"compound": "CCn1nnnc1NC(=O)c1ccc(C(F)(F)F)c(C(=O)C2CCCCC2)c1SC", "study_system": "AMARE", "observed_result": 100}
{"compound": "CCCn1nnnc1NC(=O)c1ccc(C(F)(F)F)c(C(=O)C2CCC2)c1SC", "study_system": "AMARE", "observed_result": 100}
{"compound": "CCCn1nnnc1NC(=O)c1ccc(C(F)(F)F)c(C(=O)C(C)C)c1Cl", "study_system": "AMARE", "observed_result": 100}
{"compound": "CCn1nnnc1NC(=O)c1ccc(C(F)(F)F)c(C(=O)C2CC2)c1SC", "study_system": "AMARE", "observed_result": 100}
{"compound": "CCn1nnnc1NC(=O)c1ccc(C)c(C(=O)C2CC2)c1Cl", "study_system": "AMARE", "observed_result": 100}
{"compound": "CCCn1nnnc1NC(=O)c1ccc(C(F)(F)F)c(C(=O)COC)c1Cl", "study_system": "AMARE", "observed_result": 100}
{"compound": "CCn1nnnc1NC(=O)c1ccc(C(F)(F)F)c(C(=O)C(F)(F)F)c1Cl", "study_system": "AMARE", "observed_result": 90}
{"compound": "Cn1nnnc1NC(=O)c1ccc(C(F)(F)F)c(C(=O)C2CCCC2)c1Cl", "study_system": "AMARE", "observed_result": 100}
{"compound": "CCCC(=O)c1c(C(F)(F)F)ccc(C(=O)Nc2nnnn2CCC)c1C", "study_system": "AMARE", "observed_result": 100}
{"compound": "CCn1nnnc1NC(=O)c1ccc(SC)c(C(=O)C2CC2)c1Cl", "study_system": "AMARE", "observed_result": 100}
{"compound": "CCCn1nnnc1NC(=O)c1ccc(C(F)(F)F)c(C(=O)C2CC2)c1Cl", "study_system": "AMARE", "observed_result": 100}
{"compound": "CCCn1nnnc1NC(=O)c1ccc(C(F)F)c(C(C)=O)c1SC", "study_system": "AMARE", "observed_result": 100}
{"compound": "CCn1nnnc1NC(=O)c1ccc(C(F)(F)F)c(C(=O)C(F)F)c1Cl", "study_system": "AMARE", "observed_result": 100}
{"compound": "CCn1nnnc1NC(=O)c1ccc(S(C)(=O)=O)c(C(=O)C2CC2)c1Cl", "study_system": "AMARE", "observed_result": 100}
{"compound": "CCn1nnnc1NC(=O)c1ccc(Cl)c(C(=O)c2cccs2)c1Cl", "study_system": "AMARE", "observed_result": 80}
{"compound": "CCn1nnnc1NC(=O)c1ccc(C(F)(F)F)c(C(=O)COC)c1Cl", "study_system": "AMARE", "observed_result": 100}
{"compound": "CCC(=O)c1c(C(F)(F)F)ccc(C(=O)Nc2nnnn2CC)c1C", "study_system": "AMARE", "observed_result": 100}
{"compound": "CCCn1nnnc1NC(=O)c1ccc(C(F)(F)F)c(C(=O)C2CCCCC2)c1Cl", "study_system": "AMARE", "observed_result": 90}
{"compound": "CCn1nnnc1NC(=O)c1ccc(C)c(C(C)=O)c1Cl", "study_system": "AMARE", "observed_result": 100}
